- study system: CDK12 (Homo sapiens)
- Sequence (Q9NYV4 whole entry): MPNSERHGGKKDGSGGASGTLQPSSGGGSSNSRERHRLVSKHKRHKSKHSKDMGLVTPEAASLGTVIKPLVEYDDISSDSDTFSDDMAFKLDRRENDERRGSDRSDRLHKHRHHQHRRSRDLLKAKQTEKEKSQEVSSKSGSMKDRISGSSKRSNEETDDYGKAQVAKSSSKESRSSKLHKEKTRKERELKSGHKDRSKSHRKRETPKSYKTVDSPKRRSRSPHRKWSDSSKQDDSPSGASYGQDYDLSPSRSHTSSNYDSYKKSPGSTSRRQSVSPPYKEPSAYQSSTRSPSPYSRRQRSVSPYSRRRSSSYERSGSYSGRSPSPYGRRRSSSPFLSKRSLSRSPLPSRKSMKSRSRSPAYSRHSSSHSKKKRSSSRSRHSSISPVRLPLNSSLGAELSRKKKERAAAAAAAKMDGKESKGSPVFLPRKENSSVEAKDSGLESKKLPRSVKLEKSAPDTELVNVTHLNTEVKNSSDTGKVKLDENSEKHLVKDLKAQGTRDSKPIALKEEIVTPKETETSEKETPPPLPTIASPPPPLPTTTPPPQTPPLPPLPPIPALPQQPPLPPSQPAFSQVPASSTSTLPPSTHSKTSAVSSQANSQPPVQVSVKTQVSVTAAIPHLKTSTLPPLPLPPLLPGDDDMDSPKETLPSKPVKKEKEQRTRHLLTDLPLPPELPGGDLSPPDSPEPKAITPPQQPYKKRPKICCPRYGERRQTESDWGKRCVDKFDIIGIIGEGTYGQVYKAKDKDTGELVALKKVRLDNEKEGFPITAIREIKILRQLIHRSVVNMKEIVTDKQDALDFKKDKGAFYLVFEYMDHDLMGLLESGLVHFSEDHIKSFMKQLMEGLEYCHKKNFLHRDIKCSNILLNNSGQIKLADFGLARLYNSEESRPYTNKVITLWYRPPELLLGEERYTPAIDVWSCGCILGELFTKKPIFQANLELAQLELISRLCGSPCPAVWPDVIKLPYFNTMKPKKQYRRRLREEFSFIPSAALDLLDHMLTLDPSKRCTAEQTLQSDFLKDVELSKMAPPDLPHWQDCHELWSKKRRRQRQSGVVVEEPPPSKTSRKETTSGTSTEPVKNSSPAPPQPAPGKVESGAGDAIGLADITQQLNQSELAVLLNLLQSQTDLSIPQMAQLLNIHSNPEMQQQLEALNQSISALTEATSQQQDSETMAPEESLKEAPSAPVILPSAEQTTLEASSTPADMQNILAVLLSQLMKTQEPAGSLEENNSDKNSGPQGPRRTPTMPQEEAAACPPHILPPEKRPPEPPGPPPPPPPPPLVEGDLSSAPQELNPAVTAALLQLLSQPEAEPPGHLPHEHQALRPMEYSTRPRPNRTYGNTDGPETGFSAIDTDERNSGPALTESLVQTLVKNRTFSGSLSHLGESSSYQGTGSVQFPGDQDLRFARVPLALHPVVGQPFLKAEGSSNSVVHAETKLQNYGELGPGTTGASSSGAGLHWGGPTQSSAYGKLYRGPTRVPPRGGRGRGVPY
- Sequence (O75909 whole entry partner): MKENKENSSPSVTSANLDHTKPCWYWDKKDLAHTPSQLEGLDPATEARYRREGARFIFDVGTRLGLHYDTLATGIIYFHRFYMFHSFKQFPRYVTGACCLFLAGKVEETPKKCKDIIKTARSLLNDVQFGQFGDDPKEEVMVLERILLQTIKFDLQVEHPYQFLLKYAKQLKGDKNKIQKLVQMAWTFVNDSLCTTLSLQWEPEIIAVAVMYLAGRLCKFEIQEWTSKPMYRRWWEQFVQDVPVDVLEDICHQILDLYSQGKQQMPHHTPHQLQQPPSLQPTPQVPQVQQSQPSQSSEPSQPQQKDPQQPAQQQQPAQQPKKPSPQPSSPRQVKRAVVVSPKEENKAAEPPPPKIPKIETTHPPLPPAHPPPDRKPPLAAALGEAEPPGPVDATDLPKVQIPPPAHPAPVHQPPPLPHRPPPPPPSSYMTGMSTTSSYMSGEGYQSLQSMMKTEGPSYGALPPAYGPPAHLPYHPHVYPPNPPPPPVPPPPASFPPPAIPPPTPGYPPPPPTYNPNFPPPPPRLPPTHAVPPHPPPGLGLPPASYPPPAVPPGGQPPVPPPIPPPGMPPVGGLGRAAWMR
pIC50: −log10 of the molar value. Where a name gives a salt, the structure may show the parent alone.
compounds and their reported pIC50
value kind: pIC50

[[record]]
compound = "C=CC(=O)Nc1ccc2c(N3CC[C@@H](Nc4ncc(Br)cn4)C3)nc(N3CCOCC3)nc2c1 [Example 20]"
result = "≥ 7.00"

[[record]]
compound = "C#Cc1cnc(N[C@@H]2CCN(c3nncc4cc(NC(=O)C=C)ccc34)C2)nc1 [Example 51, formate]"
result = "≥ 7.00"

[[record]]
compound = "C=CC(=O)Nc1ccc2c(N3CC[C@@H](Nc4ncc(C(F)(F)F)c(N)n4)C3)ncnc2c1 [Example 6]"
result = "≥ 7.00"

[[record]]
compound = "C=CC(=O)Nc1ccc2c(N3CC[C@@H](Nc4ncc5ccncc5n4)C3)ncnc2c1 [Example 16]"
result = "≥ 7.00"

[[record]]
compound = "C=CC(=O)Nc1ccc2c(N3CC[C@@H](Nc4ncc(Cl)c(Oc5ccccc5)n4)C3)ncnc2c1 [Example 7]"
result = "6.00 to 7.00"

[[record]]
compound = "C=CC(=O)Nc1ccc2c(N3CC[C@@H](Nc4ncc(C#N)cn4)C3)nnc(N3CCC3)c2c1 [Example 45, formate]"
result = "≥ 7.00"

[[record]]
compound = "C=CC(=O)N(C)c1ccc2c(N3CC[C@@H](Nc4ncc(Br)cn4)C3)nccc2c1 [Example 27]"
result = "≥ 7.00"

[[record]]
compound = "C=CC(=O)Nc1ccc2c(N3CC[C@@H](Nc4ncc(C#N)cn4)C3)nccc2c1 [Example 26]"
result = "≥ 7.00"

[[record]]
compound = "C=CC(=O)Nc1ccc2c(N3CC[C@@H](Nc4ncc(C#N)cn4)C3)nc(C)nc2c1 [Example 30]"
result = "≥ 7.00"

[[record]]
compound = "C=CC(=O)Nc1ccc2c(N3CC[C@@H](Nc4ncc(C#N)cn4)C3)nncc2c1 [Example 49]"
result = "≥ 7.00"

[[record]]
compound = "C=CC(=O)Nc1ccc2c(N3CC[C@@H](Nc4ncc(Cl)c(OC)n4)C3)ncnc2c1 [Example 4]"
result = "≥ 7.00"

[[record]]
compound = "C=CC(=O)Nc1ccc2c(N3CC[C@@H](Nc4ncc(Cl)c(OCC)n4)C3)nccc2c1 [Example 19]"
result = "≥ 7.00"

[[record]]
compound = "C=CC(=O)Nc1ccc2c(N3CC[C@@H](Nc4ncc(C#N)cn4)C3)nc(N3CCCC3)nc2c1 [Example 29]"
result = "6.00 to 7.00"

[[record]]
compound = "C=CC(=O)Nc1ccc2c(N3CC[C@@H](Nc4ncc(C#N)cn4)C3)nc(N3CCOCC3)nc2c1 [Example 22]"
result = "6.00 to 7.00"

[[record]]
compound = "C=CC(=O)Nc1ccc2c(N3CC[C@@H](Nc4ncc(Br)cn4)C3)nc(C)nc2c1 [Example 21]"
result = "≥ 7.00"

[[record]]
compound = "C=CC(=O)Nc1ccc2c(N3CC[C@@H](Nc4ncc5sccc5n4)C3)ncnc2c1 [Example 11]"
result = "≥ 7.00"

[[record]]
compound = "C#Cc1cnc(N[C@@H]2CCN(c3nccc4cc(NC(=O)C=C)ccc34)C2)nn1 [Example 47]"
result = "≥ 7.00"

[[record]]
compound = "C=CC(=O)Nc1ccc2c(N3CC[C@@H](Nc4ncc5cc(F)ccc5n4)C3)ncnc2c1 [Example 8]"
result = "≥ 7.00"

